Test system: rat adipocytes
Experiment: In vitro lipolysis assay (antilipolytic activity in rat adipocytes)
Type: cell-based
Conditions: Rattus norvegicus, Adipocyte, 1 h; norepinephrine-stimulated lipolysis, glycerol assayed, 60 min; read-out: Lipo ec50
measuredParameter: EC50 (nM)

A: OC[C@H]1O[C@@H](n2cnc3c(N[C@H]4CCN(c5ccc(-c6cccs6)cn5)C4)ncnc32)[C@H](O)[C@@H]1O [Example 18]
B: OC[C@H]1C[C@@H](n2cnc3c(N[C@H]4CCN(c5ccc(Cl)cn5)C4)ncnc32)[C@H](O)[C@@H]1O [Example 33]
C: OC[C@H]1C[C@@H](n2cnc3c(N[C@H]4CCN(c5ccccc5)C4)ncnc32)[C@H](O)[C@@H]1O [Example 39]
Challenge: Ranking request: EC50, max to min, items above. Show the ranking through the labels, in the order asked for.
Response given: C, B, A
(C: 17.6 nM, B: 4.2 nM, A: 2.24 nM)

Where do these numbers come from? They come from patent US20030176390A1.
